- Target Desc: Human lysosome (α-galactosidase) (Homo sapiens)
- Construct: gene GLA
- Sequence (P06280 32-429): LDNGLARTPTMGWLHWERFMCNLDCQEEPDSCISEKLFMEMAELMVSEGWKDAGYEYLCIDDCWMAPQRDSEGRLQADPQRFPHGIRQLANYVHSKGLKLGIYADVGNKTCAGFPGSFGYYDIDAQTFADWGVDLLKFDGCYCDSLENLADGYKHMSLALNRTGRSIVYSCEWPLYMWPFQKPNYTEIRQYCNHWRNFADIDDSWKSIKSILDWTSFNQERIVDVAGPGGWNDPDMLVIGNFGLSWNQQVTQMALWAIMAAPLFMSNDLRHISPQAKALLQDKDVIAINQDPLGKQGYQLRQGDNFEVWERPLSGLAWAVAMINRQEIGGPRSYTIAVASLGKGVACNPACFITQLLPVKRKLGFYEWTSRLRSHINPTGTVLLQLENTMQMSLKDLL
- Assay Text: enzyme inhibition assay
- Format: biochemical
- Applied Conditions: read-out: IC50 ^a / MON-6d-DGJ
Quantity: pIC50
FYI, pIC50 means -log10 of a concentration in mol per litre.

Quick note, pIC50 for COCCCCCCCCCN1C[C@H](O)[C@@H](O)[C@@H](O)[C@H]1C landed at 3.59

====

- Target Desc: Mouse ER α-glucosidase II (Mus musculus, UniProt Q8BHN3)
- Construct: gene Ganab; with Glucosidase 2 subunit beta
- Sequence (Q8BHN3 33-944): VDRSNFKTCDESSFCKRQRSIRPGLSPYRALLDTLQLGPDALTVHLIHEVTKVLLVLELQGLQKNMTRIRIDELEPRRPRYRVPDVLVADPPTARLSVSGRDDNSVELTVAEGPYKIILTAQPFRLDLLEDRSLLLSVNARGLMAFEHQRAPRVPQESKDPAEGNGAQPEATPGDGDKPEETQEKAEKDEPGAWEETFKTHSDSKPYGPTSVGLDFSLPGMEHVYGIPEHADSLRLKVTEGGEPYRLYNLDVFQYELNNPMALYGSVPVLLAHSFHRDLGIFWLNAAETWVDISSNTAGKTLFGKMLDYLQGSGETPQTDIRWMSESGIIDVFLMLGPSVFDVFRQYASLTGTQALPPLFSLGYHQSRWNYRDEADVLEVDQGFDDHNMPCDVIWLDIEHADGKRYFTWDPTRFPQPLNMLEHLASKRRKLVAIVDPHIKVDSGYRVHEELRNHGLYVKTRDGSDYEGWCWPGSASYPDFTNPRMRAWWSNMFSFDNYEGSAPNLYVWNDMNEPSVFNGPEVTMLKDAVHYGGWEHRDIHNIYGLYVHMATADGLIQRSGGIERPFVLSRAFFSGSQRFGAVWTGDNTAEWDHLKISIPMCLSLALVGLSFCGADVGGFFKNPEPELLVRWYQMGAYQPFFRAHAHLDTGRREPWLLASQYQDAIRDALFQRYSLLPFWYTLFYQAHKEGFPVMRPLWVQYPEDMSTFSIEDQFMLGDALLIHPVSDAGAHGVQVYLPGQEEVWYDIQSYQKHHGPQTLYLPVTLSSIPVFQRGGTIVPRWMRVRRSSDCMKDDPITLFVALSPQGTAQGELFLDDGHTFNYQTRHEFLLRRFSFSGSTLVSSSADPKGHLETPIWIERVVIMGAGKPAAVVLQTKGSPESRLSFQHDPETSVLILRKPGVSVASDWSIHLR
- Sequence (O08795 15-521 partner): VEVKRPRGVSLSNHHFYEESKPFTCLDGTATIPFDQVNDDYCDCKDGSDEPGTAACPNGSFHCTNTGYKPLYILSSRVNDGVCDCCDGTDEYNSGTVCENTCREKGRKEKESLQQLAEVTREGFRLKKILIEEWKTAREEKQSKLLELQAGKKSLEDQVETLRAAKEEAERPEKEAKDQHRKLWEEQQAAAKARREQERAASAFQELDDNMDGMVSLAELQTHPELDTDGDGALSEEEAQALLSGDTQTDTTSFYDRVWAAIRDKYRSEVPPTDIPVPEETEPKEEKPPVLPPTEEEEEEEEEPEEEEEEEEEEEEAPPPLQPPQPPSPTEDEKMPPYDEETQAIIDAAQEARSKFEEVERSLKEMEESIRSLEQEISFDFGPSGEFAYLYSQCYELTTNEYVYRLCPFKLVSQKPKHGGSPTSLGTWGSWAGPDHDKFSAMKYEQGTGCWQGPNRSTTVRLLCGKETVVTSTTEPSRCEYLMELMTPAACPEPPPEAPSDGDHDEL
- Assay Text: enzyme inhibition assay, purified enzyme
- Assay type: biochemical
- Applied Conditions: read-out: IC50 ^a / MON-6d-DGJ
pIC50: −log10 of the molar value.
Quantity: pIC50

Quick note, pIC50 for COCCCCCCCCCN1C[C@H](O)[C@@H](O)[C@@H](O)[C@H]1C [MON-6d-DGJ] landed at < 2.98

====

- Target Desc: ceramide glucosyltransferase (HL60 glucosyltransferase) (Homo sapiens, UniProt Q16739)
- Construct: gene UGCG; native enzyme isolated from human promyelocytic HL60 cells
- Sequence (Q16739 1-394): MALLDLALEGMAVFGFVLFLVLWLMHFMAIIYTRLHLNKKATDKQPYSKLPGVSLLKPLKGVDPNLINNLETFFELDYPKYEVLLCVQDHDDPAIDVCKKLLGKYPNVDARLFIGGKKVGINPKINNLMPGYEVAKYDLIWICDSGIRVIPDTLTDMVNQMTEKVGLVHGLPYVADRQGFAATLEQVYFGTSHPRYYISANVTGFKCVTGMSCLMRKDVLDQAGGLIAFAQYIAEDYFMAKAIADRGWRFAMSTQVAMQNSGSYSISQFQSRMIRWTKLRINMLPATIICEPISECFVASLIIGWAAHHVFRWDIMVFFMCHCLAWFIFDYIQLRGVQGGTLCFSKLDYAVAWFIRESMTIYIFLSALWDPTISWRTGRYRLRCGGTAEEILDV
- Assay Text: enzyme inhibition assay, enzyme isolated from HL60 cells
- Assay type: biochemical
- Applied Conditions: read-out: IC50 ^a / MON-6d-DGJ
Quantity: IC50
Please append the unit to your numeric answer.

Quick note, IC50 for COCCCCCCCCCN1C[C@H](O)[C@@H](O)[C@@H](O)[C@H]1C landed at 88.3 µM

====

- Target Desc: Mouse ER α-glucosidase I (Mus musculus, UniProt Q80UM7)
- Construct: gene Mogs
- Sequence (Q80UM7 whole entry): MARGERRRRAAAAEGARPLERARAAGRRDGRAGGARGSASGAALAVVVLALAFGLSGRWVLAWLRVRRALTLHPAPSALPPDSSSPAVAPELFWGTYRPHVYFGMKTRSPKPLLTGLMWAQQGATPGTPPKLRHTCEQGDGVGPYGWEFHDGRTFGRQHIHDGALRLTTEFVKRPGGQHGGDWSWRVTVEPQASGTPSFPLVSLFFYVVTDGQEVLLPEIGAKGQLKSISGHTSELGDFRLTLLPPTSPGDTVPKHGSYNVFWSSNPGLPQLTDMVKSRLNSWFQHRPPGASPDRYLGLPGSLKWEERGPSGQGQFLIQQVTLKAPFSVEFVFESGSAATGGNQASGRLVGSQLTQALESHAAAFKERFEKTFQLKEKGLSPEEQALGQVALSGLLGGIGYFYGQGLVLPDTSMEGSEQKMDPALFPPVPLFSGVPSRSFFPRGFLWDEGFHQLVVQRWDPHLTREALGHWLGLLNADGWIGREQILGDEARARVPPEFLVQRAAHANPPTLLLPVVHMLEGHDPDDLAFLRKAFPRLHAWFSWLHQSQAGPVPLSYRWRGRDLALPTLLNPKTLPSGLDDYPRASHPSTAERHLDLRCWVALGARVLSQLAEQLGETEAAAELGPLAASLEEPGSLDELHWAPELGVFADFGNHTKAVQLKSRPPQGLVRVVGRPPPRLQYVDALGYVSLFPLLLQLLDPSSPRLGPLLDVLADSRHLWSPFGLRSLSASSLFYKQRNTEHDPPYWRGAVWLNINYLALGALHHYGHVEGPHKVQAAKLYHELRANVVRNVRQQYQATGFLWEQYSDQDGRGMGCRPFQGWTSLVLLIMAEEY
- Assay Text: enzyme inhibition assay, purified enzyme
- Type: biochemical
- Applied Conditions: read-out: IC50 ^a / UV-4B
- Text: enzyme inhibition assay, purified enzyme on Mouse ER α-glucosidase I
Quantity: IC50 (nM)
Please respond with the number in nM and leave the unit unwritten.

Quick note, IC50 for COCCCCCCCCCN1C[C@H](O)[C@@H](O)[C@H](O)[C@H]1CO landed at 160

====

- Target Desc: Mouse ER α-glucosidase II (Mus musculus, UniProt Q8BHN3)
- Construct: gene Ganab; with Glucosidase 2 subunit beta
- Assay Text: enzyme inhibition assay, purified enzyme
- Assay type: biochemical
- Applied Conditions: read-out: IC50 ^a / UV-4B
Quantity: IC50 (µM)
Please respond with the number in µM and leave the unit unwritten.

Quick note, IC50 for COCCCCCCCCCN1C[C@H](O)[C@@H](O)[C@H](O)[C@H]1CO landed at 1.8

====

- Target Desc: Rat intestinal maltase
- Construct: gene Mgam; native rat intestinal enzyme activity; maltase may be maltase-glucoamylase and/or sucrase-isomaltase
- Assay Text: enzyme inhibition assay
- Assay type: biochemical
- Applied Conditions: IC50 not reached up to maximal dose; read-out: IC50 ^a / MON-6d-DGJ
Quantity: IC50

# lookup: COCCCCCCCCCN1C[C@H](O)[C@@H](O)[C@@H](O)[C@H]1C [MON-6d-DGJ] on Rat intestinal maltase, IC50 = > 1.05 mM
